Test system: TDF
assay_remarks: H1.0 immunofluorescence intensity relative to DMSO (% of DMSO); higher = stronger H1.0 induction, active = 120 or more
condition_context: concentration: 10 µM; 24 h
Documented H1.0 immunofluorescence intensity across a set of compounds
property_label: H1.0 immunofluorescence intensity

# compound, recorded_number
rows = [
    ("CC(C)C(=O)c1c(C(C)C)nn2ccccc12 [Ibudilast]", 93.1),
    ("CC1=C(CC(=O)O)c2cc(F)ccc2C1=Cc1ccc(S(C)(=O)=O)cc1 [Sulindac sulfone]", 100),
    ("CC(C)(S)[C@H](N)C(=O)O [L-Penicillamine]", 98.5),
    ("CCCCCC(=O)C=CC1C(O)CC(=O)C1CC=CCCCC(=O)O (stereo not given) [15-keto-prostaglandin E2]", 89.3),
    ("CC(C(=O)O)c1ccc2c(c1)Cc1cccnc1O2 (stereo not given) [Pranoprofen]", 103),
]

---

Test system: HCC1569
assay_remarks: H1.0 immunofluorescence intensity relative to DMSO (% of DMSO); higher = stronger H1.0 induction, active = 140 or more
condition_context: concentration: 10 µM; 24 h
Possible outcomes: active, inactive

# compound, class_name
measured = [
    ("C[C@@H](Nc1ncnc2[nH]c(-c3ccc(O)cc3)cc12)c1ccccc1", "inactive"),
    ("Cl.O=C(CNC(=O)c1cccc(C(F)(F)F)c1)N[C@@H]1CCN(Cc2ccc(Cl)cc2)C1", "inactive"),
    ("CC(=O)NC(C(=O)O)C(C)(C)SN=O (stereo not drawn) [S-Nitroso-N-acetylpenicillamine]", "inactive"),
    ("CC(C)(C)C1(O)CCN2CC3c4ccccc4CCc4cccc(c43)C2C1.Cl (single isomer, unassigned; (+)) [(+)-Butaclamol hydrochloride]", "active"),
    ("Cl.O=S(=O)(c1cccc2cnccc12)N1CCCNCC1", "inactive"),
    ("COC(=O)C1=C(C)NC(C)=C(C(=O)OCCN(C)Cc2ccccc2)C1c1cccc([N+](=O)[O-])c1.Cl (stereo not drawn) [Nicardipine.HCl]", "inactive"),
    ("CC(=O)O/N=C1\\C(=O)N(Cc2cc(Cl)ccc2Cl)c2ccc(Cl)cc21", "inactive"),
    ("CCCCCC=CCC=CCC=CCC1OC1CCCC(=O)O (stereo not drawn) [5,6-Epoxyeicosatrienoic acid]", "inactive"),
    ("CCC=CCC=CCC=CCCCCCCCCCC(=O)O [Eicosatrienoic acid]", "inactive"),
    ("COc1ccc(-c2nn3c(-c4ccccn4)nnc3s2)cc1OC", "inactive"),
    ("CCn1c(=O)c2[nH]c(-c3ccccc3)nc2n(CC)c1=O [1,3-Diethyl-8-phenylxanthine]", "inactive"),
    ("CCc1cc(CCC2(C3CCCC3)CC(O)=C(Cc3nc4nc(C)cc(C)n4n3)C(=O)O2)cc(CC)n1 (stereo not drawn)", "inactive"),
    ("NC(N)=NCCC[C@H](N)C(=O)O [L-Arginine]", "inactive"),
    ("CC(Cc1ccc(O)c(O)c1)(NN)C(=O)O.O (stereo not drawn) [Carbidopa.H2O]", "inactive"),
    ("Cl.Nc1nc2ccc(OC(F)(F)F)cc2s1 [Riluzole.HCl]", "inactive"),
    ("Cc1cc2nc(NCCCO)n(CC(=O)c3cc(C(C)(C)C)c(O)c(C(C)(C)C)c3)c2cc1C", "active"),
    ("CC1=NS(=O)(=O)c2cc(Cl)ccc2N1 [Diazoxide]", "inactive"),
    ("NC(C(=O)O)C1CC(Cl)=NO1 (stereo not drawn) [Acivicin]", "inactive"),
]

---

System: HCC1569
assay_remarks: cell number relative to DMSO (% of DMSO); higher = more cells (less growth inhibition / toxicity)
condition_context: concentration: 10 µM; 24 h
Param threshold (100) applies to cell number; output True when value >= threshold, False when value < threshold.

# compound, target_or_test_system, class_name
rows = [
    ("CC1CN(c2c(F)c(N)c3c(=O)c(C(=O)O)cn(C4CC4)c3c2F)CC(C)N1 (stereo not drawn) [Sparfloxacin]", "HCC1569", "True"),
    ("N[C@@H](Cc1ccc(F)cc1)C(=O)O [p-Fluoro-L-phenylalanine]", "HCC1569", "True"),
    ("O=C1CN(/N=C/c2ccc(-c3ccc([N+](=O)[O-])cc3)o2)C([O-])=N1.[Na+]", "HCC1569", "False"),
    ("C=C[C@]1(C)C[C@@H](OC(=O)CO)[C@]2(C)[C@H](C)CC[C@]3(CCC(=O)[C@H]32)[C@@H](C)[C@@H]1O", "HCC1569", "False"),
    ("Cl.Cl.OCCN1CCN(CCC=C2c3ccccc3Sc3ccc(C(F)(F)F)cc32)CC1 [cis-(Z)-Flupenthixol dihydrochloride]", "HCC1569", "False"),
    ("CC(CN(C)C)CN1c2ccccc2Sc2ccc(C#N)cc21 (stereo not drawn)", "HCC1569", "False"),
    ("C[C@]12CCC(=O)C=C1CC[C@@H]1[C@@H]2[C@@H](O)C[C@@]2(C)[C@H]1CC[C@]2(O)C(=O)COC(=O)CCC(=O)[O-].[Na+]", "HCC1569", "False"),
    ("O=C1NC(=O)c2c1c1c3ccccc3[nH]c1c1[nH]c3cc(Br)ccc3c21 [Cdk4 Inhibitor]", "HCC1569", "False"),
    ("COc1ccc2c(c1)c(CC(=O)O)c(C)n2Cc1ccc(Cl)cc1 [1-(4-Chlorobenzyl)-5-methoxy-2-methylindole-3-acetic acid]", "HCC1569", "True"),
    ("Nc1c2c(nc3ccccc13)CCCC2O.O=C(O)C=CC(=O)O (stereo not drawn) [Hydroxytacrine]", "HCC1569", "True"),
    ("Cc1ccc(F)cc1C(=O)Nc1ccc(C(=O)N2Cc3cccn3Cc3ccccc32)c(Cl)c1", "HCC1569", "False"),
]

---

Documented cell number across a set of compounds
Tested on: HCC1569
assay_remarks: cell number relative to DMSO (% of DMSO); higher = more cells (less growth inhibition / toxicity)
condition_context: concentration: 10 µM; 24 h
property_label: cell number

# compound, target_or_test_system, property_label, recorded_number
data = [
    ("COc1cc2c(cc1OC)C(c1ccccc1)CN(C)CC2.O=C(O)C=CC(=O)O (centres undefined)", "HCC1569", "cell number", 101),
    ("CCC(NC(C)C)C(O)c1ccc(O)c(O)c1.CS(=O)(=O)O (centres undefined) [Isotharine mesylate]", "HCC1569", "cell number", 103),
    ("O=C(O)c1cc(N(Cc2ccccc2O)Cc2cc(O)ccc2O)ccc1O", "HCC1569", "cell number", 105),
    ("O=C(O)c1ccccc1C(=O)Nc1ccc(-c2ccccc2)cc1 [2-[([1,1'-biphenyl]-4-ylamino)carbonyl]benzoic acid]", "HCC1569", "cell number", 104),
]

---

Tested on: HCC1569
assay_remarks: H1.0 immunofluorescence intensity relative to DMSO (% of DMSO); higher = stronger H1.0 induction, active = 140 or more
condition_context: concentration: 10 µM; 24 h
Possible outcomes: active, inactive

# compound, target_or_test_system, class_name
measured = [
    ("CCOC(=O)[C@H](CCc1ccccc1)N[C@@H](C)C(=O)N1CCC[C@H]1C(=O)O.O=C(O)C=CC(=O)O", "HCC1569", "inactive"),
    ("CC(C)NCC(O)COc1ccc(CC(N)=O)cc1 (stereo not given) [Atenolol]", "HCC1569", "inactive"),
    ("CC(C)(C)n1nc(Cc2cccc3ccccc23)c2c(N)ncnc21", "HCC1569", "active"),
    ("Cc1ccc(OCC(O)C(C)NC(C)C)c2c1CCC2.Cl (stereo not given) [ICI 118,551 hydrochloride]", "HCC1569", "inactive"),
    ("CCCN1CCCC[C@H]1C(=O)Nc1c(C)cccc1C.Cl.O", "HCC1569", "inactive"),
]

---

Test system: HCC1569
assay_remarks: H1.0 immunofluorescence intensity relative to DMSO (% of DMSO); higher = stronger H1.0 induction, active = 140 or more
condition_context: concentration: 10 µM; 24 h
Param threshold (100) applies to H1.0 immunofluorescence intensity; output YES when value >= threshold, NO when value < threshold.

# molecule, target_or_test_system, class_name
records = [
    ("CCN(CC)CCCC(C)Nc1c2ccc(Cl)cc2nc2ccc(OC)cc12 (configuration not stated) [Quinacrine]", "HCC1569", "YES"),
    ("CCCCCC=CCC=CC=CC=CC(O)C(O)CCCC(=O)O (configuration not stated)", "HCC1569", "NO"),
    ("CC(=O)OCC(CCn1cnc2cnc(N)nc21)COC(C)=O [Famciclovir]", "HCC1569", "YES"),
    ("CCCC1CC(C(=O)NC(C(C)O)C2OC(SC)C(O)C(O)C2O)N(C)C1 (configuration not stated) [Lincomycin]", "HCC1569", "NO"),
    ("OCCN1CCN(CCCN2c3ccccc3Sc3ccc(Cl)cc32)CC1 [Perphenazine]", "HCC1569", "YES"),
    ("CC[N+](CC)(CC)CCOc1cccc(OCC[N+](CC)(CC)CC)c1OCC[N+](CC)(CC)CC.[I-].[I-].[I-] [Gallamine triethiodide]", "HCC1569", "YES"),
    ("O=C(C=Cc1ccc(O)c(O)c1)OCCc1ccccc1 [Caffeic acid phenethyl ester]", "HCC1569", "YES"),
    ("O=C([O-])Cc1ccccc1Nc1c(Cl)cccc1Cl.[Na+] [Diclofenac sodium]", "HCC1569", "NO"),
    ("Cc1c(C)c2c(c(C)c1O)CCC(C)(C(=O)O)O2 (configuration not stated) [Trolox]", "HCC1569", "NO"),
    ("CS(=O)(=O)Nc1ccc([N+](=O)[O-])cc1Oc1ccccc1 [Nimesulide]", "HCC1569", "NO"),
    ("COc1cc2c3cc1Oc1c(OC)c(OC)cc4c1C(Cc1ccc(O)c(c1)Oc1ccc(cc1)CC3N(C)CC2)N(C)CC4.Cl.Cl (configuration not stated)", "HCC1569", "YES"),
    ("CC=Cc1ccc(OC)cc1 [Anethole, trans-]", "HCC1569", "YES"),
    ("Cc1ccc(-c2n[nH]c3c2C(c2cccc(O)c2)N(c2ccc(C(=O)O)cc2)C3=O)cc1 (configuration not stated)", "HCC1569", "YES"),
]
